The following molecules are shown together with reported residual activity values.
# TESTED_TARGET: Focal adhesion kinase 1 (Homo sapiens) (UniProt Q05397)
# Sequence (Q05397 2-1052 limits assumed): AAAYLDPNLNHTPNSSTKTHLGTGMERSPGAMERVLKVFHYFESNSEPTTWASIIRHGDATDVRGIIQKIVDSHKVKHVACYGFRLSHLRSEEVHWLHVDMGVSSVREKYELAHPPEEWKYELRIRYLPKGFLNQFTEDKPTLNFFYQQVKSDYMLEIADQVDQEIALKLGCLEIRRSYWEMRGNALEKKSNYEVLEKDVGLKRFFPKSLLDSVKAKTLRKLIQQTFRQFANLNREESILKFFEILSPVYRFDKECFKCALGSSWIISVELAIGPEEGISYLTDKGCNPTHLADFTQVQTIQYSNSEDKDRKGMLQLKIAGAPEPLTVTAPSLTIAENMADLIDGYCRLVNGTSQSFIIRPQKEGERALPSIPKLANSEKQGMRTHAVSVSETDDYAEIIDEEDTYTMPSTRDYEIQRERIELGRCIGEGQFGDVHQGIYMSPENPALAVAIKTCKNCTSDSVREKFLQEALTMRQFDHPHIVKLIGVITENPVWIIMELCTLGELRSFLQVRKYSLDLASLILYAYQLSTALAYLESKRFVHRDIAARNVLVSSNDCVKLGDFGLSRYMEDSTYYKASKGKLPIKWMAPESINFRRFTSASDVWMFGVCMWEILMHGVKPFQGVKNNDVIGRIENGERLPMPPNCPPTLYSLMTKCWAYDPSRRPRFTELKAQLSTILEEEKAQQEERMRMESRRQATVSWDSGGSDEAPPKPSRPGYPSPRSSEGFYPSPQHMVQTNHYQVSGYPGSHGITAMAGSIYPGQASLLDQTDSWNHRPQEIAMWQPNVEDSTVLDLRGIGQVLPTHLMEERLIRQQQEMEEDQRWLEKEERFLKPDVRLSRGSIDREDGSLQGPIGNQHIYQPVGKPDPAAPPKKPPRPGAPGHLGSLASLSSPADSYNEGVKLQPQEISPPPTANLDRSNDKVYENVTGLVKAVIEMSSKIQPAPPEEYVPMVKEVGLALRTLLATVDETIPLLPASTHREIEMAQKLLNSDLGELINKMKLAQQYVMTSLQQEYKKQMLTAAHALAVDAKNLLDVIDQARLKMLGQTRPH
# CONDITION: at 10 µM
READOUT_KIND: residual activity (%)

• c1ccc(-c2cnc(Nc3ccc(OCCN4CCCC4)cc3)s2)cc1 = 46
• Nc1ncnc2c1c(-c1ccc(Oc3ccccc3)cc1)cn2C1CCCC1 = 46
• O=C(Nc1ccc(Cl)cc1)c1ccccc1NCc1ccncc1 = 73
• O=C(c1cc2cc(O)ccc2[nH]1)c1cc2cc(O)ccc2[nH]1 = 65

----------
# TESTED_TARGET: Mast/stem cell growth factor receptor Kit (Homo sapiens)
# CONDITION: at 1 µM
The following compounds are shown together with reported residual activity values.
READOUT_KIND: residual activity (%)

• CCN(CC)CCNC(=O)c1c(C)[nH]c(/C=C2\C(=O)Nc3ccc(Cl)cc32)c1C = -1
• Cn1sc(=O)n(Cc2ccccc2)c1=O = 100
• O=C(c1ccccc1)c1ccc(N2CCOCC2)cc1O = 111
• CCCCc1c(-c2ccc(O)cc2)[nH]c2nccnc12 = 98
• CC(C)(C)c1nc2c3ccc(F)cc3c3c(=O)[nH]ccc3c2[nH]1 = 119
• CC(C)[C@H](CO)Nc1nc(Nc2cc(N)cc(Cl)c2)c2ncn(C(C)C)c2n1 = 99
• COc1ccc2c(c1)c(C1=C(c3c[nH]c4ccccc34)C(=O)NC1=O)cn2CCCN(C)C = 109
• COc1cc2nccc(Oc3ccc(NC(=S)NC(=O)c4ccccc4C)cc3)c2cc1OC = 28
• CC(C)(C)n1nc(Cc2cccc3ccccc23)c2c(N)ncnc21 = 113
• CCCC(=O)Oc1ccc2[nH]c(C(=O)c3cc4ccccc4[nH]3)cc2c1 = 107
• COc1cc2ncnc(Nc3cccc(Cl)c3)c2cc1OC = 103

----------
# TESTED_TARGET: Tyrosine-protein kinase SYK (Homo sapiens)
# CONDITION: at 1 µM
The following molecules are shown together with reported residual activity values.
READOUT_KIND: residual activity (%)

- CSc1nc(-c2ccc(F)cc2)c(-c2ccnc(NC(C)c3ccccc3)c2)[nH]1 (stereo unspecified): 101
- CC(C)N(CCC(=O)c1ccc2ccccc2c1)Cc1ccccc1: 127
- O=C1NC(=O)C(c2cn(CCCO)c3ncccc23)=C1c1cnccn1: 93
- O=C(CCCc1ccc(-c2ccccc2F)cc1)Nc1ccc(O)cc1: 100
- COc1cc2ncnc(Nc3cccc(Cl)c3)c2cc1OC: 121
- O=C1C(Cl)=C(N2C(=O)CCC2=O)C(=O)c2ccccc21: 100

----------
The following compounds are shown together with reported residual activity values.
# TESTED_TARGET: Ribosomal protein S6 kinase alpha-1 (Homo sapiens)
# CONDITION: at 1 µM
READOUT_KIND: residual activity (%)

- O=c1cc(N2CCOCC2)oc2c1ccc1ccccc12: 108
- COc1cc2nccc(Oc3ccc(NC(=O)Nc4cc(C)on4)c(Cl)c3)c2cc1OC: 105
- O=C1NC(=O)c2c1c1c3ccccc3[nH]c1n1cncc21: 58
- O=C1NC(=O)C(c2cn(CCCn3ccnc3)c3ccccc23)=C1Nc1ccccc1: 8
- CCCCc1c(-c2ccc(OC)cc2)[nH]c2nccnc12: 122
- O=C1C(Cl)=C(N2C(=O)CCC2=O)C(=O)c2ccccc21: 120
- O=S(=O)(NCCNC/C=C/c1ccc(Br)cc1)c1cccc2cnccc12: 53
- Nc1nc(Nc2ccc(S(N)(=O)=O)cc2)nn1C(=O)c1c(F)cccc1F: 28
- Oc1cccc(-c2nc(N3CCOCC3)c3oc4ncccc4c3n2)c1: 141
- CC(C)(C)c1nc2c3ccc(F)cc3c3c(=O)[nH]ccc3c2[nH]1: 65
- COc1cc2c(cc1OC)-c1n[nH]c(Nc3cccc(F)c3)c1C2: 112
- CC(C)c1nn(-c2c(Cl)cccc2Cl)c2nc(Cc3ccc(OCCO)cc3)[nH]c(=O)c12: 105
- O=C(c1ccccc1)c1ccc(N2CCOCC2)cc1O: 96
- CCN(CC)CCNC(=O)c1c(C)[nH]c(/C=C2\C(=O)Nc3ccc(Cl)cc32)c1C: 11
- NCCNc1ncc(C(N)=O)c(Nc2cccc(C(F)(F)F)c2)n1: 116
